Source of measurements: the supplement of paper PMC10307832

# System: NCI-H358
# Test details: relative viability (nuclei count vs DMSO), 5 days (fraction); higher = more cells survive
# Condition notes: first compound 0.04 µM
Quantity: relative viability
Give bare numbers.

compound="C[C@@H]1CN(CC(=O)Nc2ccc3c(c2)Cc2cccc(-c4cc(=O)cc(N5CCOCC5)o4)c2S3)C[C@H](C)O1 + N=C(N)NC(=N)NCCc1ccccc1 [Phenformin] (partner 250 µM)" readout_number=0.362
compound="Clc1ccc(Nc2nnc(Cc3ccncc3)c3ccccc23)cc1 [Vatalanib] + Nc1ncn([C@H]2C[C@H](O)[C@@H](CO)O2)c(=O)n1 [Decitabine] (partner 2 µM)" readout_number=0.23
compound="C[C@@H]1CN(CC(=O)Nc2ccc3c(c2)Cc2cccc(-c4cc(=O)cc(N5CCOCC5)o4)c2S3)C[C@H](C)O1 + O=C(CCCCCCC(=O)Nc1ccccc1)NO [Vorinostat] (partner 1 µM)" readout_number=0.724

Count: 2. Required value per item: relative viability.
1. Clc1ccc(Nc2nnc(Cc3ccncc3)c3ccccc23)cc1 [Vatalanib] + NC(=O)Nc1cc(-c2cccc(F)c2)sc1C(=O)N[C@H]1CCCNC1 [AZD7762] (partner 0.2 µM)
2. C[C@@H]1CN(CC(=O)Nc2ccc3c(c2)Cc2cccc(-c4cc(=O)cc(N5CCOCC5)o4)c2S3)C[C@H](C)O1 + CC(=O)c1c(C)c2cnc(Nc3ccc(N4CCNCC4)cn3)nc2n(C2CCCC2)c1=O [Palbociclib] (partner 0.5 µM)

Key:
[0.694, 0.123]
